- TARGET OR SYSTEM: T1, human soluble IL6-R (human, UniProt P08887 20-358)
- T1 chain: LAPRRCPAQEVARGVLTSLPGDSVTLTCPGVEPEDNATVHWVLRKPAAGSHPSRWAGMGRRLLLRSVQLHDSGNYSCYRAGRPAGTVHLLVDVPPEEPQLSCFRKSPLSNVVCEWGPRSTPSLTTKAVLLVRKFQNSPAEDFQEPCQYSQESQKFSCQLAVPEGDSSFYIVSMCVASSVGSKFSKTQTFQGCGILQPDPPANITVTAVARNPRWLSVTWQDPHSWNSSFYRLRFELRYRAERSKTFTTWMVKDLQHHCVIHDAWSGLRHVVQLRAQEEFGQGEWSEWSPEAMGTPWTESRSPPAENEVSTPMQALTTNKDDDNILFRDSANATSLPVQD
- PROTOCOL TEXT: Alphascreen inhibition of IL6/IL6-R interaction
REPORTED PROPERTY: EC50 (nM)

- BINDER: "IL6R84 (VHH) VHH: EVQLVESGGGLVQPGGSLRLSCAASGFTFDDYGMSWVRQAPGKGLEWVSAISWNGNNTYYTESMKGRFTISRDNAKNTLYLQMNSLRPEDTAVYYCVKGSTAIVGVPPTYPDEYDYWGQGTLVTVSS"
  EC50 / nM: 0.465

[I] IL6R13 (VHH) VHH: EVQLVESGGGLVQPGGSLRLSCAASGFTFDDYGMSWVRQAPGRATEWVSAISWNGNNTYYTESMKGRFTISRDNAKNTVYLQMNSLKPEDTAVYYCVKGSTAIVGVPPTYPDEYDYWGQGTQVTVSS
[II] IL6R82 (VHH) VHH: EVQLVESGGGLVQPGGSLRLSCAASGFTFDDYGMSWVRQAPGKGLEWVSAISWNGNNTYYTESMKGRFTISRDNAKNTVYLQMNSLRPEDTAVYYCVKGSTAIVGVPPTYPDEYDYWGQGTLVTVSS
Ask: Returns: the label, I or II , whose recorded EC50 is the lower number. # respond with the chosen item's label
Result: I

All figures here come from patent US20180016342A1.
